Molecular target: T1, hCD19-his (human CD19 recombinant protein, Pro20-Lys291, His tag at C-terminus) (human, UniProt P15391 20-291)
T1 construct: range 20-291; also called human CD19-His
T1 sequence (looked up): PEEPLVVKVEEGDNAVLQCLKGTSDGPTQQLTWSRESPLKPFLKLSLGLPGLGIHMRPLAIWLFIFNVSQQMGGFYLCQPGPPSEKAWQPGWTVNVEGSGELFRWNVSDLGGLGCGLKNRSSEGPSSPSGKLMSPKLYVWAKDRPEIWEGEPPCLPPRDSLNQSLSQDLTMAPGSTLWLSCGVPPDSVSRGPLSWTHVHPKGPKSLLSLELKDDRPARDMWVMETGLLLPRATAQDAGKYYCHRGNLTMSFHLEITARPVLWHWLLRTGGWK
Experiment: ELISA, coated hCD19-His
Observation type: EC50 (µg/mL)
The response must be a number in µg/mL with no trailing unit.

Quickly give me recorded EC50 for 11H8 (hybridoma antibody) (antibody, V domains shown, hybridoma mAb from H2L2 mouse (human variable, rat constant regions)) VH: QVQLVESGGGVVQPGRSLRLSCAASGFTFSRHGMHWVRQAPGKGLEWVAVIWYDGSNQYYVDSVKGRFTISRDNSKNTLDLQMNSLRVEDTAVYYCARRSITWYGGFDIWGQGTMVTVSS VL: DIQMTQSPSTLSASVGDRVTITCRASQSISSWLAWYQQKPGKAPKLLIYKASSLESGVPPRFSGSGSGTEFTLTISSLQPDDFATYYCQQYNSAYTFGQGTKLEIK
0.0301
